I'd appreciate it if you could supply pKd values for the items below.
target: TBP (TATA-binding protein, hTBP) (Homo sapiens, UniProt P20226 1-339); experiment: EMSA; Fixed active TBP (typically 0.3 nM) titrated with 32P dsDNA to equilibrium; buffer, salt, pH and temperature not given in the material; conditions: protein: recombinant; label: 32P both strands; blunt
Sequence (P20226 whole entry): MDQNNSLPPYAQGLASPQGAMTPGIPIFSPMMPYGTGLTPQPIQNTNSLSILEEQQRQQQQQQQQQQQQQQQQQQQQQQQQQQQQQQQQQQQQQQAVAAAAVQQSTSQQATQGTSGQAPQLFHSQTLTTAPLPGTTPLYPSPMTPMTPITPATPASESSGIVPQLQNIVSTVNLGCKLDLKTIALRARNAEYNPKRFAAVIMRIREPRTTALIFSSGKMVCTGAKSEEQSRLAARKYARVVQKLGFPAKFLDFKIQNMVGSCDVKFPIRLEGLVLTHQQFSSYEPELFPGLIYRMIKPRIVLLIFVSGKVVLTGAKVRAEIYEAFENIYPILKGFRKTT
Scale explanation: pKd corresponds to minus log10 of a concentration expressed in moles per litre.

Using known records, supply pKd for SOD1 TATA WT (dsDNA) DNA 1: AGGTCTGGCCTATAAAGTAGTCGCGG DNA 2: CCGCGACTACTTTATAGGCCAGACCT
7.40

Provide measured pKd value, entry: MBL2 -35T>C (dsDNA) DNA 1: CATCTATTTCTACATAGCCTGCACCC DNA 2: GGGTGCAGGCTATGTAGAAATAGATG
7.24

Item globin pseudogene TATA WT (dsDNA) DNA 1: CTGCCACACCCACATTATTAGAAAAT DNA 2: ATTTTCTAATAATGTGGGTGTGGCAG : provide pKd
6.82

Look up and report measured pKd for this entry: CYP2A6 TATA WT (dsDNA) DNA 1: TTTCAGGCAGTATAAAGGCAAACCAC DNA 2: GTGGTTTGCCTTTATACTGCCTGAAA
7.77

In one line, give reported pKd of the entry HBB -28A>C (dsDNA) DNA 1: CAGGGCTGGGCATACAAGTCAGGGCA DNA 2: TGCCCTGACTTGTATGCCCAGCCCTG .
6.52

Supply recorded pKd for TPI -24T>G (dsDNA) DNA 1: CGCGGCGCTCTATAGAAGTGGGCAGT DNA 2: ACTGCCCACTTCTATAGAGCGCCGCG here.
6.82

Identify measured pKd corresponding to IL1B TATA WT (dsDNA) DNA 1: TTTTGAAAGCCATAAAAACAGCGAGG DNA 2: CCTCGCTGTTTTTATGGCTTTCAAAA
7.54

Look up pKd of TF -21C>T (dsDNA) DNA 1: GCCGGCCCTTTATAGTGCGCGGGGCA DNA 2: TGCCCCGCGCACTATAAAGGGCCGGC and report it.
7.59

Respond only with pKd recorded for HBD TATA WT (dsDNA) DNA 1: ACAGGACCAGCATAAAAGGCAGGGCA DNA 2: TGCCCTGCCTTTTATGCTGGTCCTGT
7.34

Identify the reported pKd for the following entry. HBB -28A>G (dsDNA) DNA 1: CAGGGCTGGGCATAGAAGTCAGGGCA DNA 2: TGCCCTGACTTCTATGCCCAGCCCTG
7.06

Given NOS2A -21T>C (dsDNA) DNA 1: ATGGGGTGAGTATAAATACCTCTTGG DNA 2: CCAAGAGGTATTTATACTCACCCCAT , respond with its pKd.
8.80
